Test system: Isocitrate dehydrogenase [NADP] cytoplasmic (Homo sapiens), O75874 [R132H]
Sequence (O75874 whole entry R132H): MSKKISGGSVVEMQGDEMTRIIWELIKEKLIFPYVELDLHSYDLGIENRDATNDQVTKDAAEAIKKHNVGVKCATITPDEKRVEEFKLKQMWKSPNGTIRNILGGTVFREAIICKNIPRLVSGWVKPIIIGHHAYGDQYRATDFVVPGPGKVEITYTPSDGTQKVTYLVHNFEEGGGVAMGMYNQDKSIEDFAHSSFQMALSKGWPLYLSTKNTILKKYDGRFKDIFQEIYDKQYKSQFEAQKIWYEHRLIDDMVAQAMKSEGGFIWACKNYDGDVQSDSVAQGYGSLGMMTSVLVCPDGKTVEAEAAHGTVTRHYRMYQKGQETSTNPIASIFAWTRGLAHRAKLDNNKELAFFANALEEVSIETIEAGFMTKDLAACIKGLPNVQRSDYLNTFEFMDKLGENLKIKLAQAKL
Assay: Inhibition of IDH1 R132H mutant (unknown origin) expressed in HEK293T cells assessed as reduction in D-2-HG levels at 50 uM after 72 hrs relative to control; values are per cent of control
Measured Endpoint: residual activity (%)
Respond numerically; units are % and should not be typed.

# residual activity of CC(C)[C@H]1COC(=O)N1c1ccnc(N[C@@H](C)c2ccc(-c3ccccn3)cc2)n1 = 24.7

# residual activity of CC(C)[C@H]1COC(=O)N1c1cncc(N[C@@H](C)c2ccc(-c3ccc4ccccc4c3)cc2)n1 = 39.5

# residual activity of COc1ccc(-c2ccc([C@H](C)Nc3cncc(N4C(=O)OC[C@@H]4C(C)C)n3)cc2)cc1 = 31.9

# residual activity of COc1ccccc1-c1ccc([C@H](C)Nc2cncc(N3C(=O)OC[C@@H]3C(C)C)n2)cc1 = 24.6

# residual activity of CC(C)[C@H]1COC(=O)N1c1cncc(N[C@@H](C)c2ccc(-c3ccc(F)cc3)cc2)n1 = 33

# residual activity of CC(C)[C@H]1COC(=O)N1c1cncc(N[C@@H](C)c2ccc(-c3ccc(C(F)(F)F)cc3)cc2)n1 = 30.7

# residual activity of Cc1ccc(-c2ccc([C@H](C)Nc3cncc(N4C(=O)OC[C@@H]4C(C)C)n3)cc2)cc1 = 38.7

# residual activity of Cc1noc(C)c1-c1ccc([C@H](C)Nc2cncc(N3C(=O)OC[C@@H]3C(C)C)n2)cc1 = 21.5

# residual activity of CC(C)[C@H]1COC(=O)N1c1cncc(N[C@@H](C)c2ccc(-c3ccccc3F)cc2)n1 = 28

# residual activity of CC(C)[C@H]1COC(=O)N1c1cncc(N[C@@H](C)c2ccc(-c3ccccc3)cc2)n1 = 38.8

# residual activity of Cc1cccc(-c2ccc([C@H](C)Nc3cncc(N4C(=O)OC[C@@H]4C(C)C)n3)cc2)c1 = 28.5

# residual activity of COc1cccc(-c2ccc([C@H](C)Nc3cncc(N4C(=O)OC[C@@H]4C(C)C)n3)cc2)c1 = 33.9

# residual activity of Cc1ccccc1-c1ccc([C@H](C)Nc2cncc(N3C(=O)OC[C@@H]3C(C)C)n2)cc1 = 28.3
